B1: Max-interacting protein 1, residues 70 to 120; numbered along this chain, P50539 (parent)
chain: STHNELEKNRRAHLRLCLERLKVLIPLGPDCTRHTTLGLLNKAKAHIKKLE

Variants of: B1
Assay: abundance fitness (aPCA) (normalised: wild type 0, dead -1); higher = more abundant; growth selection in yeast, the domain comes from the species named
Details: Homo sapiens
The label depends only on abundance fitness: Satisfied if it is at least -0.2, Not satisfied if it is smaller.

As a guide, the following entries are already answered.
mutant_designation: D30R
class_label: Satisfied
//
mutant_designation: K22R
class_label: Satisfied
//
mutant_designation: S1R
class_label: Not satisfied
//
mutant_designation: L27Q
class_label: Satisfied
//
mutant_designation: L21M
class_label: Not satisfied

Decide: is the reported value of abundance fitness for A43P equal to or greater than -0.2?
Not satisfied

Query C17V next
Satisfied

Query E51Y next
Satisfied

Query L39D next
Not satisfied

Query H13I next
Not satisfied

Query R11K next
Satisfied

Query C17E next
Not satisfied

Query L50M next
Not satisfied

Query A12H next
Not satisfied

Query K22A next
Not satisfied
